- system-under-test: Monoamine transporters; Norepinephrine & dopamine (Homo sapiens) (UniProt Q01959+P23975)
- Sequence (P23975 whole entry, looked up): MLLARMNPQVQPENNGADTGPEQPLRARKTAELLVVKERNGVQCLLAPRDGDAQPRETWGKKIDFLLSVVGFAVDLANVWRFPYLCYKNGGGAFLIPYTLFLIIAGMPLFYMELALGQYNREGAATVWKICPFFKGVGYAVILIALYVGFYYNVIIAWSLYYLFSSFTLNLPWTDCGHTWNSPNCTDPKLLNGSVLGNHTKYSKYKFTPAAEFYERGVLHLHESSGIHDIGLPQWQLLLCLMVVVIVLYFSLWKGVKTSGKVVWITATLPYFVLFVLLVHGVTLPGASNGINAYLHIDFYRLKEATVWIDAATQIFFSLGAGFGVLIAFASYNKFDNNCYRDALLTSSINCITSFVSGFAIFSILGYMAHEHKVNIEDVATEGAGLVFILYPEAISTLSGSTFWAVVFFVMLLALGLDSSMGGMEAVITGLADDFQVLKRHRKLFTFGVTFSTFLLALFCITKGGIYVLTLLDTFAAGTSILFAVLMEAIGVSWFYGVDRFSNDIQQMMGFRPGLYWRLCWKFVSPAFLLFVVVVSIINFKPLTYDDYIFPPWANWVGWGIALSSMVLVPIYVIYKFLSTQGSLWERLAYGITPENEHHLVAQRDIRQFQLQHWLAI
- Sequence (Q01959 whole entry, looked up): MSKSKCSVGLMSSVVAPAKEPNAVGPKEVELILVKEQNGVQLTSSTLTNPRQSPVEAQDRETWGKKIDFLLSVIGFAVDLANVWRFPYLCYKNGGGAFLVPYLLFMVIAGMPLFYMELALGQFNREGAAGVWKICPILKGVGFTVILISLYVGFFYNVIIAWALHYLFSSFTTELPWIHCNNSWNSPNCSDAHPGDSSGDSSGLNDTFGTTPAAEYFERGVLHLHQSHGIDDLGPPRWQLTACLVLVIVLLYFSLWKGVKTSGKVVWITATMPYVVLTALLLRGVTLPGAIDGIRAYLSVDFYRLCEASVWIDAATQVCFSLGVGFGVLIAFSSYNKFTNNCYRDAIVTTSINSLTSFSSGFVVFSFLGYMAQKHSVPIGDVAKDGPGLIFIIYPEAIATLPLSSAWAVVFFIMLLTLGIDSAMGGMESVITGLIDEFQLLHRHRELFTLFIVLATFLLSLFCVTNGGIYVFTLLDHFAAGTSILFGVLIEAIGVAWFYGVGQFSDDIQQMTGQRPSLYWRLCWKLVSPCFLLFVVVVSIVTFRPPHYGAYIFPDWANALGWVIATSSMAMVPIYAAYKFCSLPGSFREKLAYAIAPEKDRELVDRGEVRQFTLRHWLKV
- method-notes: Selectivity ratio as ratio of IC50 value against NET to that of DAT
- Type: protein assay
Lab note: anything with Ratio at or over 2 counts as criterion met; the rest go in criterion not met.

compound	system-under-test	classification
OC1(c2ccc(Cl)cc2)c2ccccc2C2=N[C@H]3CCCC[C@@H]3N21 (stereo partly specified)	Monoamine transporters; Norepinephrine & dopamine (Homo sapiens) (UniProt Q01959+P23975)	criterion met
OC1(c2ccc3ccccc3c2)c2ccccc2C2=NCCN21 (stereo unspecified)	Monoamine transporters; Norepinephrine & dopamine (Homo sapiens) (UniProt Q01959+P23975)	criterion not met
OC1(c2ccc(Cl)cc2)c2ccc3ccccc3c2C2=NCCCN21 (stereo unspecified)	Monoamine transporters; Norepinephrine & dopamine (Homo sapiens) (UniProt Q01959+P23975)	criterion met
OC1(c2ccc(Cl)cc2)c2ccccc2C2=NCCCN21 (stereo unspecified)	Monoamine transporters; Norepinephrine & dopamine (Homo sapiens) (UniProt Q01959+P23975)	criterion met
OC1(c2ccc(Cl)cc2)c2ccc3ccccc3c2C2=NCCN21 (stereo unspecified)	Monoamine transporters; Norepinephrine & dopamine (Homo sapiens) (UniProt Q01959+P23975)	criterion not met
OC1(c2ccc3ccccc3c2)c2ccc3ccccc3c2C2=NCCN21 (stereo unspecified)	Monoamine transporters; Norepinephrine & dopamine (Homo sapiens) (UniProt Q01959+P23975)	criterion not met
